experiment: Study 2: open-label 3-way crossover, liquid formulation oral vs NGT with D5W or infant formula flush; assay type: in vivo, human; settings: Study 2, Treatment B: liquid formulation via NGT, D5W flush
MEASUREMENT_LABEL: Cmax Adj.Geo.Mean (ng/mL)
The answer is to be given in ng/mL; state only the numeric part.

input: Give me measured Cmax Adj.Geo.Mean, please, for this molecule: "COc1ccc(-n2nc(C(N)=O)c3c2C(=O)N(c2ccc(N4CCCCC4=O)cc2)CC3)cc1"
output: 182

###

test: Study 2: open-label 3-way crossover, liquid formulation oral vs NGT with D5W or infant formula flush; assay type: in vivo, human; details: Study 2, Treatment C: liquid formulation via NGT, infant formula flush
MEASUREMENT_LABEL: Cmax Adj.Geo.Mean
Could you give the number and then its unit, please?

input: Provide one value: measured Cmax Adj.Geo.Mean of COc1ccc(-n2nc(C(N)=O)c3c2C(=O)N(c2ccc(N4CCCCC4=O)cc2)CC3)cc1 [Apixaban]
output: 154 ng/mL
